All values here come from ChEMBL document CHEMBL1128134.

assayed system: Cathepsin B (Homo sapiens) (UniProt P07858)
protocol description: Apparent second order rate constant for inhibition of cathepsin B by fluorogenic assay.
Square brackets hold non-standard residues; d marks the D form. Peptide text beside a SMILES is read from it. * marks the point of attachment. ξ: configuration not given here. Cbz = O=C(OCc1ccccc1)*; ξL = CC(C)CC(N)C(=O)O; CH2Cl = ClC*
attribute measured: k obs / 1 (M⁻¹ s⁻¹)

Reference set (5 entries):
compound: CC(C)CC(NC(=O)OCc1ccccc1)C(=O)NC(Cc1ccc(O)cc1)C(=O)CCl (stereo not drawn) (Cbz-Leu-Tyr-CH2Cl; configuration not given here)
k obs / 1 (M⁻¹ s⁻¹): 2000
--
compound: CC(NC(=O)C(Cc1ccccc1)NC(=O)OCc1ccccc1)C(=O)COC(=O)c1c(Cl)ccc(OCCN2CCOCC2)c1Cl (centres undefined)
k obs / 1 (M⁻¹ s⁻¹): 150000
--
compound: CC(C)CC(NC(=O)[C@@H](Cc1ccccc1)NC(=O)OCc1ccccc1)C(=O)NC(Cc1ccccc1)C(=O)COC(=O)c1c(F)cccc1F (some centres undefined)
k obs / 1 (M⁻¹ s⁻¹): 100
--
compound: COC(=O)N[C@H](C)C(=O)NC(CC(C)C)C(=O)NC(Cc1ccccc1)C(=O)COC(=O)c1c(F)cccc1F (some centres undefined)
k obs / 1 (M⁻¹ s⁻¹): 700
--
compound: CC(NC(=O)C(Cc1ccccc1)NC(=O)OCc1ccccc1)C(=O)CCl (centres undefined)
k obs / 1 (M⁻¹ s⁻¹): 220000

a = CC(C)CC(NC(=O)OCc1ccccc1)C(=O)NCC(=O)CCl (centres undefined) (Cbz-[ξL]-Gly-CH2Cl)
b = CC(C)CC(NC(=O)OCc1ccccc1)C(=O)NC(Cc1ccc(O)cc1)C(=O)COC(=O)c1c(Cl)ccc(S(=O)(=O)CCN2CCOCC2)c1Cl (centres undefined)
c = CC(C)CC(NC(=O)OCc1ccccc1)C(=O)NCC(=O)COC(=O)c1c(Cl)ccc(S(=O)(=O)N2CCOCC2)c1Cl (centres undefined)
d = CC(C)CC(NC(=O)[C@@H](C)NC(=O)OCc1ccccc1)C(=O)NC(Cc1ccccc1)C(=O)COC(=O)c1c(Cl)ccc(OCCN2CCOCC2)c1Cl (some centres undefined)
Exam item: list the entries in increasing order of k obs / 1. Quick reminder: the answer is the labels in the order asked.
d, b, a, c

a = CC(C)CC(NC(=O)OCc1ccccc1)C(=O)NC(C)C(=O)COC(=O)c1c(Cl)ccc(OCCN2CCOCC2)c1Cl (centres undefined)
b = CC(C)C[C@H](NC(=O)OCc1ccccc1)C(=O)N[C@@H](CC(C)C)C(=O)N[C@@H](Cc1ccccc1)C(=O)CCl (Cbz-Leu-Leu-Phe-CH2Cl)
Short answer wanted: higher k obs / 1, a or b ? Provide the label of your selected option as the answer.
a

====

assayed system: Procathepsin L (Homo sapiens) (UniProt P07711)
Sequence (P07711 114-333 limits assumed): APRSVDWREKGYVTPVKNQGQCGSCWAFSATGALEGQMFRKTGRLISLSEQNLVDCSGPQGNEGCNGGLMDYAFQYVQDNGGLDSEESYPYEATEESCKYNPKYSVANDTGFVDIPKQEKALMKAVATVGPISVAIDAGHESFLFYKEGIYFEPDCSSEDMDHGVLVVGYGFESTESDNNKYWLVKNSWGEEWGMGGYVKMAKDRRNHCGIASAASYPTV
protocol description: Inhibition of cathepsin L (fluorogenic assay), apparent second order rate constant
Square brackets hold non-standard residues; d marks the D form. Peptide text beside a SMILES is read from it. * marks the point of attachment. ξ: configuration not given here. Cbz = O=C(OCc1ccccc1)*; ξL = CC(C)CC(N)C(=O)O; CH2Cl = ClC*
attribute measured: k obs / 1 (M⁻¹ s⁻¹)

A = CC(C)CC(NC(=O)OCc1ccccc1)C(=O)NC(Cc1ccccc1)C(=O)COC(=O)c1c(Cl)ccc(S(=O)(=O)CCN2CCOCC2)c1Cl (centres undefined)
B = CC(C)CC(NC(=O)OCc1ccccc1)C(=O)NCC(=O)CCl (centres undefined) (Cbz-[ξL]-Gly-CH2Cl)
C = CC(C)CC(NC(=O)[C@@H](Cc1ccccc1)NC(=O)OCc1ccccc1)C(=O)NC(Cc1ccccc1)C(=O)COC(=O)c1c(F)cccc1F (some centres undefined)
Arrange the 3 entries by k obs / 1 so the values rise. Quick reminder: the answer is the labels in the order asked.
C, A, B
(C: 100 M⁻¹ s⁻¹, A: 38000 M⁻¹ s⁻¹, B: 500000 M⁻¹ s⁻¹)
